Reference for the values: patent US12214059B2

- target-under-test: PSMA (Homo sapiens, UniProt Q04609)
- Construct: host or cells: LNCaP cells
- Sequence (Q04609 whole entry): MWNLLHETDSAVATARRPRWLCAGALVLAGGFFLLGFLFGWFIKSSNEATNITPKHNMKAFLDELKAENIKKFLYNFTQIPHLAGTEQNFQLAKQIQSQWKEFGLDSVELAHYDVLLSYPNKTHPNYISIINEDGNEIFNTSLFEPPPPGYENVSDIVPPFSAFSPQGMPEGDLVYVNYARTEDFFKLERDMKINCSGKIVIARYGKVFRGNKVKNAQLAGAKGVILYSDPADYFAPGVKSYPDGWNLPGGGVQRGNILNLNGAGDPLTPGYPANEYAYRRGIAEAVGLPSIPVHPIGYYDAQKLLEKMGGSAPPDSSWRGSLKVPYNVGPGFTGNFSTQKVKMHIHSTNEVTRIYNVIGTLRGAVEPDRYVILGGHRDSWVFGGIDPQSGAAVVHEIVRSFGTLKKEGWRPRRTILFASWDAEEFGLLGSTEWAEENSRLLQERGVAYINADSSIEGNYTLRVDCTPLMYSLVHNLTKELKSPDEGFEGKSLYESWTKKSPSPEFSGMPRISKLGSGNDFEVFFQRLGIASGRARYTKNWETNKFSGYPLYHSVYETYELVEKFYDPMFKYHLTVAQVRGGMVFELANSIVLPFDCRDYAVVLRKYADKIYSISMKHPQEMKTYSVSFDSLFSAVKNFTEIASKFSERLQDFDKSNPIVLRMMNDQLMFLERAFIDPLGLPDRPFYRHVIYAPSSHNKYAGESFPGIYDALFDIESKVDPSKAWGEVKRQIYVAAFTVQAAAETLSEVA
- protocol-description: Cell-based radioligand competitive binding assay (^125I-C-8, LNCaP cells)
- test-conditions: relative, C-1 = 1.00
measure-name: Relative Binding Affinity
Answer field: number only, no words.

>>> readout_value("O=C(O)CC[C@H](NC(=O)N[C@@H](CCCCNC(=O)[C@H](Cc1ccc2ccccc2c1)NC(=O)C1CCC(CNC(=O)CN2CCN(CC(=O)O)CCN(CC(=O)O)CCN(CC(=O)O)CC2)CC1)C(=O)O)C(=O)O (stereo partly shown) [Example C-1, reference compound]")
1.00
>>> readout_value("O=C(O)CC[C@H](NC(=O)N[C@@H](CCCCNC(=O)[C@H](Cc1ccc2ccccc2c1)NC(=O)[C@H]1CC[C@H](CNC(=O)[C@H](CCCCNC(=O)CN2CCN(CC(=O)O)CCN(CC(=O)O)CCN(CC(=O)O)CC2)NC(=O)CCCOC(=O)CNC(=O)[C@H](CCC(=O)O)NC(=O)CCCc2ccc(I)cc2)CC1)C(=O)O)C(=O)O [Example I-2, 4pIBA-Glu-ESL1-Lys(DOTA)-Trx-2NaI-eKuE]")
0.75
>>> readout_value("O=C(O)CC[C@H](NC(=O)N[C@@H](CCCCNC(=O)[C@H](Cc1ccc2ccccc2c1)NC(=O)[C@H]1CC[C@H](CNC(=O)[C@H](CCCCNC(=O)CCC(=O)NCCSSCCNC(=O)CN2CCN(CC(=O)O)CCN(CC(=O)O)CCN(CC(=O)O)CC2)NC(=O)[C@H](CCC(=O)O)NC(=O)CCCc2ccc(I)cc2)CC1)C(=O)O)C(=O)O [Example I-4, 4pIBA-Glu-Lys(-SSL1-DOTA)-Trx-2NaI-eKuE]")
0.95

Here is the next item to consider.
Problem: Note down Relative Binding Affinity recorded for O=C(O)CC[C@H](NC(=O)N[C@@H](CCCCNC(=O)[C@H](Cc1ccc2ccccc2c1)NC(=O)[C@H]1CC[C@H](CNC(=O)COCCOCCNC(=O)[C@H](CCCCNC(=O)CCCOC(=O)CNC(=O)CN2CCN(CC(=O)O)CCN(CC(=O)O)CCN(CC(=O)O)CC2)NC(=O)[C@H](CCCCNC(=O)COCCOCCNC(=O)COCCOCCNC(=O)[C@H](CCC(=O)O)NC(=O)CCCc2ccc(I)cc2)NC(=O)COCCOCCNC(=O)COCCOCCNC(=O)[C@H](CCC(=O)O)NC(=O)CCCc2ccc(I)cc2)CC1)C(=O)O)C(=O)O [Example I-7]
Solution: 0.54

---

- protocol-description: Ex-vivo mouse plasma stability study of ^177Lu-labeled compounds
- Assay type: in vitro ADME
- test-conditions: 37° C., 48 h
% Remaining 48 h reference
State the answer as a number, implicitly in %.

Guide cases for % Remaining 48 h, answers given:
>>> readout_value("O=C(O)CCCCCCCCCCCCCCCCC(=O)N[C@@H](CCC(=O)NCCOCCOCC(=O)NCCOCCOCC(=O)N[C@@H](CCCCNC(=O)CCCOC(=O)CNC(=O)CNC(=O)CNC(=O)CNC(=O)CN1CCN(CC(=O)O)CCN(CC(=O)O)CCN(CC(=O)O)CC1)C(=O)NCCOCCOCC(=O)NC[C@H]1CC[C@H](C(=O)N[C@@H](Cc2ccc3ccccc3c2)C(=O)NCCCC[C@H](NC(=O)N[C@@H](CCC(=O)O)C(=O)O)C(=O)O)CC1)C(=O)O")
70.6
>>> readout_value("O=C(O)CC[C@H](NC(=O)N[C@@H](CCCCNC(=O)[C@H](Cc1ccc2ccccc2c1)NC(=O)C1CCC(CNC(=O)CN2CCN(CC(=O)O)CCN(CC(=O)O)CCN(CC(=O)O)CC2)CC1)C(=O)O)C(=O)O (stereo partly drawn) [Example C-1, reference compound]")
100

Here is the next item to consider.
Problem: Note down % Remaining 48 h recorded for O=C(O)CC[C@H](NC(=O)N[C@@H](CCCCNC(=O)[C@H](Cc1ccc2ccccc2c1)NC(=O)[C@H]1CC[C@H](CNC(=O)[C@H](CCCCNC(=O)CN2CCN(CC(=O)O)CCN(CC(=O)O)CCN(CC(=O)O)CC2)NC(=O)CCCOC(=O)CNC(=O)[C@H](CCC(=O)O)NC(=O)CCCc2ccc(I)cc2)CC1)C(=O)O)C(=O)O
Solution: 67.5
